system: Inhibin beta A chain (activin A); test: small molecules binding activin A – biochemical, small-molecule microarray, 635 nm fluorescence scan, primary screen (AID 1107); settings: INHBA, higher = more signal;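 also: mouse activin A protein probed at 4.33 µg/mL on printed slides; score merges bound-protein fluorescence near 667 nm with spot signal-to-noise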
Property: composite z-score; scope: individual compounds

{"columns": ["compound", "composite z-score"],
 "data": [
  ["CCCNC(=O)[C@@]1(C)c2ccccc2C(=O)N(Cc2cc(C(F)(F)F)cc(C(F)(F)F)c2)[C@H]1c1ccc(CO)cc1", -0.605],
  ["CN1C(=O)C2C(C1=O)C1C=C(c3ccc(CO)cc3)C2C(C2CC2)N1Cc1cc2c(cc1Br)OCO2 (stereo not given)", 1.22],
  ["O=C(CS)NCCCCCCNC(=O)[C@H]1C[C@H]2C(=O)N3CCC[C@H]3C(=O)N2[C@H]1c1ccc(O)cc1", 0.487],
  ["COC(=O)c1c2oc(c1C(=O)OC)C(=O)N[C@H](Cc1ccccc1)Cn1nncc1C1(CCCCC1)NC(=O)N[C@H](CO)CC2", 0.006],
  ["O=C1c2ccccc2[C@@]2(Cc3ccccc3N(Cc3ccccc3)C2=O)[C@H](c2ccc(CO)cc2)N1Cc1ccccc1C(F)(F)F", 0.581],
  ["C=C[C@H](C)[C@H](OC(=O)Nc1ccc(OC)cc1)c1ccc(O)c2ccccc12", 0.997],
  ["COCCOC(=O)N1C(=O)[C@@]2(c3cc(C#CC4=CCCCC4)ccc31)[C@H](c1ccc(OCCO)cc1)N1[C@H](c3ccccc3)[C@H](c3ccccc3)OC(=O)[C@H]1[C@@H]2C(=O)Nc1nc2ccccc2s1", 0.462],
  ["CCOC(=O)N1C(c2ccc(OCCCO)cc2)=NC(C(=O)OC)N1C(=O)OCC (stereo not given)", -0.298],
  ["C#C[C@H](O[Si](C#CCCCCCC)(C(C)C)C(C)C)c1ccccc1", 0.168],
  ["CC(C)C(O)C1C=CC2C(=O)N(C)C(=O)C2N1N1CCCCC1 (stereo not given)", 0.976],
  ["CC(=O)N1Cc2ccccc2C[C@@]2(N=C(c3ccc(OCCCO)cc3)O[C@H]2c2ccccc2)C1=O", 1.03],
  ["C[C@]1(C(=O)NCC(F)(F)F)c2ccccc2C(=O)N(Cc2cc(F)cc(C(F)(F)F)c2)[C@H]1c1ccc(CO)cc1", -0.461],
  ["C=CC[C@@]1(C(=O)OC)N=C(c2ccc(OCCCO)cc2)O[C@@H]1c1ccccc1CN=[N+]=[N-]", 1.15],
  ["O=c1cccc(-c2cccc3ccccc23)o1", 1.46],
  ["O=C1O[C@H](c2ccccc2)[C@H](c2ccccc2)N2[C@H]1[C@@H](C(=O)Nc1nc3ccccc3s1)[C@]1(C(=O)Nc3ccc(C#CC4=CCCCC4)cc31)[C@H]2c1ccc(OCCO)cc1", 0.881],
  ["O=C1C2C=CC(C(O)CCc3ccccc3)N(Nc3ccccc3)C2C(=O)N1c1ccccc1 (stereo not given)", 0.205],
  ["Cc1ccc(S[C@]2(C(=O)NCCCN(C)C)CC(=O)N(Cc3ccccc3)[C@@H]2c2ccc(CO)cc2)cc1", 0.591],
  ["CC(C)N1C(=O)c2ccccc2[C@](C)(C(=O)NCCCN(C)C)[C@@H]1c1ccc(CO)cc1", 0.814],
  ["[N-]=[N+]=Nc1ccccc1C[C@]1(C(=O)N2CCCCC2)N=C(c2ccc(OCCCO)cc2)O[C@H]1c1ccccc1N=[N+]=[N-]", 1.25],
  ["COc1c(C)cc(-c2cc3c(c(-c4ccccc4)n2)[Si](C(C)C)(C(C)C)O[C@H]3c2ccccc2)cc1C", 0.0244],
  ["O=C1O[C@@H](c2ccccc2)[C@@H](c2ccccc2)N2[C@@H](c3ccc(O)cc3)[C@]3(C(=O)Nc4ccccc43)[C@@H](C(=O)NC[C@H](O)c3ccccc3)[C@H]12", -0.297],
  ["C=CCC(OC(C)=O)[C@@H]1[C@@H](N(Cc2ccc(-c3ccccc3)cc2)C(=O)c2ccc(C)cc2)c2cc(OCCCO)ccc2N1C(=O)Cc1ccc(OC)cc1 (stereo not given in full)", 1.23],
  ["C=CCN1Cc2ccccc2C[C@]2(N=C(c3ccc(OCCCO)cc3)O[C@@H]2c2ccccc2)C1=O", 1.31],
  ["C=CCN1C(=O)[C@]2(Cc3ccccc31)N=C(c1ccc(OCCCO)cc1)O[C@@H]2c1ccccc1", 1.27],
  ["C=C(C(=O)CC[C@@H](OC(=O)c1cccnc1)c1ccc(CO)o1)C(C)C", 1.04],
  ["Cc1ccc(S[C@]2(C(=O)NCc3ccccc3)CC(=O)N(Cc3cc(C(F)(F)F)cc(C(F)(F)F)c3)[C@@H]2c2ccc(CO)cc2)cc1", 0.283],
  ["C[N+](C)(C)CCCC[C@@H]1NC(=O)[C@@H]2C[C@H](C(=O)NCCCCCCNC(=O)CS)[C@H](c3cccc(OCCO)c3)N2C1=O", 0.439],
  ["O=C1c2ccccc2[C@](Cc2ccccc2I)(C(=O)O)[C@H](c2ccc(CO)cc2)N1Cc1ccccc1C(F)(F)F", 0.353],
  ["CN1C(=O)C2C(C1=O)C1C=C(c3ccc(CO)cc3)C2C(C2CC2)N1Cc1sc2ccccc2c1Cl (stereo not given)", 0.74],
  ["O=C1O[C@@H](c2ccccc2)[C@@H](c2ccccc2)N2[C@@H](c3ccccc3OCCO)[C@]3(C(=O)Nc4ccc(C#CC5(O)CCCCCC5)cc43)[C@@H](C(=O)NC[C@H](O)c3ccccc3)[C@H]12", 1]
]}

====

Property: composite z-score; scope: individual compounds
assay: probe aLefty2 binding to arrayed compounds – biochemical, biotinylated probe, 635/667 nm fluorescence, primary screen (AID 1094); details: small-molecule microarray, higher = more signal;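 also: score merges spot fluorescence near 667 nm with spot signal-to-noise ratio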
propertyMeasured: composite z-score

{"columns": ["compound", "result"],
 "data": [
  ["CN(C)CCCC[C@@H]1NC(=O)[C@@H]2C[C@H](C(=O)NCCCCCN)[C@H](c3ccc(O)cc3)N2C1=O", -0.0862],
  ["CC1CC/C=C\\[C@H]2OC34C=CCN(CCN5CCOCC5)C(=O)[C@H]3N(CCCCCO)C(=O)[C@@H]4C2C(=O)O1 (stereo not given in full)", -0.339],
  ["COc1ccc([Si](C)(C)[C@H]2[C@H](CCO)O[C@@]3(C(=O)N(Cc4cccc(N5C(=O)c6cccc7cccc5c67)c4)c4ccccc43)[C@@H]2C)cc1", -0.205],
  ["Cc1ccc(S[C@]2(C(=O)NCC(C)C)CC(=O)N(Cc3ccccc3)[C@@H]2c2ccc(CO)cc2)cc1", 0.189],
  ["COCCOC(=O)N1C(=O)[C@@]2(c3cc(C#CCCO)ccc31)[C@H](C(=O)NC[C@H](O)c1ccccc1)[C@H]1C(=O)O[C@H](c3ccccc3)[C@H](c3ccccc3)N1[C@@H]2c1ccc(OCCO)cc1", 0.0129],
  ["C=C(C)[C@@H]1CC=C(C(O)C2C=CC3C(=O)N(Cc4ccccc4)C(=O)C3N2n2cnnc2)CC1 (stereo not given in full)", 0.0864],
  ["COCC1=C([C@H](O)CCc2ccccc2)[C@H](CO)[C@@H]2C(=O)N(Cc3ccccc3)C(=O)[C@@H]2C1", -0.235],
  ["Cc1cc(C)c(C(O)C2C=CC3C(=O)NC(=O)C3N2Nc2ccccn2)c(C)c1 (stereo not given)", 0.0961],
  ["NC(=O)[C@]1(Cc2ccccc2)N=C(c2ccc(OCCCO)cc2)O[C@@H]1c1ccccc1", 0.0781],
  ["COCCCNC(=O)[C@@]1(Cc2ccccc2I)c2ccccc2C(=O)N(Cc2ccccc2)[C@H]1c1ccc(CO)cc1", -0.204],
  ["COCCOC(=O)N1C(=O)[C@@]2(c3cc(C#Cc4ccc(OC)cc4)ccc31)[C@H](c1ccc(OCCO)cc1)N1[C@H](c3ccccc3)[C@H](c3ccccc3)OC(=O)[C@H]1[C@@H]2C(=O)N1CCc2cc(OC)c(OC)cc2C1", -0.202],
  ["O=C1OCC=C[C@H]2OC34C=CCN(c5ccc(Cl)cc5)C(=O)[C@H]3N(CCCO)C(=O)[C@@H]4[C@@H]12 (stereo not given in full)", -0.0783],
  ["O=C(CS)NCCCCCCNC(=O)[C@H]1C[C@H]2C(=O)N3CCC[C@H]3C(=O)N2[C@H]1c1ccc(O)cc1", -0.0845],
  ["C=C(CCCC)C(=O)CC[C@H](OC(=O)c1ccccc1-c1ccccc1C(=O)O)c1ccc(CO)o1", -0.132],
  ["O=c1cccc(-c2cccc3ccccc23)o1", 0.303]
]}

====

molecular target: Streptavidin (Streptomyces avidinii) (UniProt P22629); assay: compounds binding control protein streptavidin – biophysical, small-molecule microarray, 635/667 nm fluorescence, artefact control for SMM compound annotation, primary screen (AID 1147); details: higher = more signal;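 also: signal reflects streptavidin binding to arrayed compounds as a control protein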
Sequence (P22629 whole entry, looked up): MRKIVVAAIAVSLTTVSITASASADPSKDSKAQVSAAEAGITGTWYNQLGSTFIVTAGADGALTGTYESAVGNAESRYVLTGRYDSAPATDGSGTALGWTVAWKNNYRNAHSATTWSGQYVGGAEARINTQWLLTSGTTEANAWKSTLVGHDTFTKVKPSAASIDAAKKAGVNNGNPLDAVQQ
Label satisfied when composite z-score is at or above -0.1; anything below gets not satisfied.

{"columns": ["compound", "experimentalTarget", "category"],
 "data": [
  ["O=C(CS)NCCCCCNC(=O)[C@H]1C[C@H]2C(=O)N[C@@H](Cc3ccccc3)C(=O)N2[C@H]1c1cccc(OCCO)c1", "Streptavidin (Streptomyces avidinii) (UniProt P22629)", "not satisfied"],
  ["O=C1O[C@@H](c2ccccc2)[C@@H](c2ccccc2)N2[C@@H](c3ccc(O)cc3)[C@]3(C(=O)Nc4ccccc43)[C@@H](C(=O)NC[C@H](O)c3ccccc3)[C@H]12", "Streptavidin (Streptomyces avidinii) (UniProt P22629)", "not satisfied"],
  ["COc1ccc([Si](C)(C)[C@H]2[C@H](CC(=O)N3CCC[C@H]3CO)O[C@@]3(C(=O)N(Cc4cccc(N5CCC5=O)c4)c4ccccc43)[C@@H]2C)cc1", "Streptavidin (Streptomyces avidinii) (UniProt P22629)", "satisfied"],
  ["COc1ccc([Si](C)(C)[C@H]2[C@H](CCO)O[C@@]3(C(=O)N(Cc4ccccc4)c4ccc(N5C(=O)COc6ccccc65)cc43)[C@@H]2C)cc1", "Streptavidin (Streptomyces avidinii) (UniProt P22629)", "satisfied"],
  ["CC(=O)N1Cc2ccccc2C[C@@]2(N=C(c3ccc(OCCCO)cc3)O[C@H]2c2ccccc2)C1=O", "Streptavidin (Streptomyces avidinii) (UniProt P22629)", "satisfied"],
  ["O=c1cccc(-c2cccc3ccccc23)o1", "Streptavidin (Streptomyces avidinii) (UniProt P22629)", "satisfied"],
  ["O=C(NCC(O)CO)[C@@]1(Cc2ccccc2)COC(c2ccc(OCCCO)cc2)=N1 (some centres not stated)", "Streptavidin (Streptomyces avidinii) (UniProt P22629)", "not satisfied"]
]}
